Provenance of the data: PubChem BioAssay AID1996

details: buffer; pH 7.4; 200.0 µM
endpoint.label: solubility kinetic

compound	endpoint.label	measured
CN1C(=O)c2cccc3c(S(=O)(=O)NCCc4ccccc4)ccc1c23	solubility kinetic	< 0.4 µg/mL
O=C(NC(=S)NCc1ccccc1)c1cccs1	solubility kinetic	1.4 µg/mL
CCCC(=O)Nc1cc(C)cn(Cc2c(F)cccc2Cl)c1=O	solubility kinetic	41.3 µg/mL

Query block: So what does the record say about solubility kinetic for `CC(=O)NCc1ccc(-c2csc(-c3cccs3)n2)cc1` ?
Result block: 4.8 µg/mL

Query block: What would you report for `Cc1ccc2c(c1)N=C(c1ccccc1)CC(C(Cl)Cl)=N2` ?
Result block: 7.1 µg/mL

Query block: What would you report for `CCOc1ccc(-c2nc(N)ncc2-c2ccc(Cl)cc2)c(O)c1` ?
Result block: 0.9 µg/mL

Query block: What would you report for `CN(C)C=Nc1nonc1-c1ccccc1` ?
Result block: 24.4 µg/mL

Query block: What would you report for Cc1ccc(/C=C/C(=O)NC2CCS(=O)(=O)C2)cc1 (stereo not given) ?
Result block: 40.2 µg/mL

Query block: What would you report for CC(C)(C)CN1CCN(Cc2cccnc2)CC1CCO (stereo not given) ?
Result block: > 43.7 µg/mL

Query block: What would you report for `N#CCNc1ccc([N+](=O)[O-])cc1C#N` ?
Result block: 30.3 µg/mL

Query block: What would you report for `Cc1c(-c2ccccc2)nc(N)c(C#N)c1-c1cccnc1` ?
Result block: 5 µg/mL

Query block: What would you report for `Cc1occc1C(=O)Nc1cccc(S(=O)(=O)N2CCOCC2)c1` ?
Result block: 52.2 µg/mL

Query block: What would you report for O=S(=O)(c1ccc(Cl)cc1)N1CCCC(C(F)(F)F)C1 (stereo not given) ?
Result block: 1 µg/mL

Query block: What would you report for CS(=O)(=O)c1ccc(NC(=O)CN2C(=O)C3CCCCC3C2=O)cc1 (stereo not given) ?
Result block: > 54.7 µg/mL

Query block: What would you report for `Cc1ccc(S(=O)(=O)Nc2c(C)cc(C)nc2Cl)cc1` ?
Result block: > 46.6 µg/mL

Query block: What would you report for `Cc1cccc(NC(=O)CN2C(=O)NC3(CCCC3)C2=O)n1` ?
Result block: > 45.3 µg/mL

---

settings: buffer; pH 7.4; 200.0 µM
endpoint.label: log10 of solubility kinetic (log10 of the value in µg/mL)
Base-10 log of solubility kinetic, unit µg/mL.

Field: example entries. Status: answers known.
compound	log10 of solubility kinetic
O=Cc1ccc(OCCCOc2cccc3cccnc23)cc1	1.58
COc1ccc2oc(C(=O)OCC(=O)N3CCC(C)CC3)c(C)c2c1	1.62
CCCCN1C(=O)C2(OCCCO2)c2cccc(C)c21	1.40
CC(C)(O)CNC(=O)Nc1ccc(Cl)c(Cl)c1	1.39
C=CCNC(=O)NC(=O)c1csc([N+](=O)[O-])c1	0.30
O=C(CCc1ccccc1)Nc1ccc2c(c1)C(=O)OC2	1.19
COCc1c(C(=O)OCC(=O)NCc2ccco2)oc2ccccc12	1.68
O=C(O)/C=C/C(=O)Nc1c(F)cccc1F	1.43
O=[N+]([O-])c1ccccc1S(=O)(=O)NCCc1ccncc1	1.64
CCOC(=O)c1sc(NC(=O)c2ccc(=O)[nH]c2)nc1C	0.86

Query block: So what does the record say about log10 of solubility kinetic for `Cc1c(C(=O)OCC(=O)NC(=O)NC2CCCCC2)cccc1[N+](=O)[O-]` ?
Result block: 0.36

Query block: What would you report for CC(NC(=O)CCc1ccccc1)c1ccc2c(c1)OCO2 (centres undefined) ?
Result block: 1.62

Query block: What would you report for CC(C)(C)NC(=O)C(OC(=O)c1cccs1)c1ccc(F)cc1 (centres undefined) ?
Result block: 0.11

---

conditions: buffer; pH 7.4; 200.0 µM
Decide by solubility kinetic: equal to or exceeding 3 µg/mL means 1.0, less means 0.0.

Here are 5 molecules together with their reported answers.
molecule.smiles	assigned.class
C/C(=N\Nc1nccnc1Cl)c1ccc(F)cc1	1.0
O=C(COC(=O)c1ccccc1Br)NC1CCCC1	1.0
CC(C)(C)c1ccc(C(=O)NCCN2CCOCC2)cc1	1.0
O=C(Nc1ccc2c(c1)C(=O)OC2)c1ccc(C(F)(F)F)cc1	0.0
N#Cc1ccccc1NC(=O)CN1CCN(Cc2ccccc2)CC1	1.0

Query block: Is the recorded value of solubility kinetic equal to or greater than 3 µg/mL for this molecule? `O=C(O)c1cccc(Nc2c3ccccc3nc3ccccc23)c1`
Result block: 0.0

Query block: What would you report for `CCC(=O)Nc1cc2[nH]c(=O)cc(C)c2cc1C` ?
Result block: 1.0

Query block: What would you report for `CCC(CC)C(=O)c1c[nH]c(C(=O)NCc2ccccn2)c1` ?
Result block: 1.0

Query block: What would you report for `CCN(CC)C(=O)N1c2ccccc2Sc2ccccc21` ?
Result block: 0.0

Query block: What would you report for `OCCCNc1ncnc2oc(-c3ccccc3)c(-c3ccccc3)c12` ?
Result block: 1.0

Query block: What would you report for `O=C(Nc1ccncc1)Nc1cccc(C(F)(F)F)c1` ?
Result block: 1.0

Query block: What would you report for `Cc1cccc(C)c1NC(=O)C1CCN(S(C)(=O)=O)CC1` ?
Result block: 1.0

---

conditions: buffer; pH 7.4; 200.0 µM
Consider the following molecules and their measured solubility kinetic readings.
# number only, unit µg/mL dropped from output

molecule	quantity.unit	measured
CCc1ccc(-c2nc(CS(=O)CC(=O)O)c(C)o2)cc1 (configuration not stated)	µg/mL	46
O=C(Cc1ccccc1)c1c[nH]c(C(=O)NCc2ccncc2)c1	µg/mL	6.1
NS(=O)(=O)c1ccc(CNC(=S)NC2CCCCC2)cc1	µg/mL	47.9

Query block: So what does the record say about solubility kinetic for `COc1cccc(C(=O)Nc2ccccc2-c2ccccc2)c1` ?
Result block: 24

Query block: What would you report for `O=C(NC1CC1)c1c(O)c2ccccc2[nH]c1=O` ?
Result block: 2.8

Query block: What would you report for `Cc1ccc(CN2CCN(c3ccccc3)CC2)o1.O=C(O)C(=O)O` ?
Result block: 49.1

Query block: What would you report for Cc1ccc(OC(C)C(=O)Nc2ccncc2)cc1C (configuration not stated) ?
Result block: 34

Query block: What would you report for `CCCCNc1ccc2c3c(cccc13)C(=O)N(CCCC)C2=O` ?
Result block: 2.1

---

settings: buffer; pH 7.4; 200.0 µM
endpoint.label: solubility kinetic

Field: example entries. Status: answers known.
compound	solubility kinetic
CC(=O)c1ccc(N2CCN(C(=O)CCc3ccccc3)CC2)cc1	> 50.5 µg/mL
Cc1cccc(NC(=O)CCN2CCCC(C)C2)c1.Cl (stereo unspecified)	> 44.5 µg/mL

Query block: So what does the record say about solubility kinetic for CC(C(=O)Nc1ccccc1)N1CCN(c2ccccn2)CC1 (stereo unspecified) ?
Result block: 11.2 µg/mL

Query block: What would you report for `CCc1ccc(OCCCCCn2ccnc2)cc1` ?
Result block: 19.5 µg/mL

Query block: What would you report for `Cc1ccc(SCC(=O)OCC(=O)Nc2ccc3[nH]c(=O)[nH]c3c2)cc1C` ?
Result block: 5.8 µg/mL

Query block: What would you report for `CCN(CC(=O)Nc1c(F)cccc1F)C(=O)Cc1c[nH]c2ccccc12` ?
Result block: > 55.7 µg/mL

---

details: buffer; pH 7.4; 200.0 µM
endpoint.label: solubility kinetic

molecule	solubility kinetic
O=S(=O)(c1ccc(Cl)cc1Cl)N1CCCC1c1cccnc1 (centres undefined)	> 53.6 µg/mL
COc1ccc(N(CC(=O)NCCSc2ccccc2)S(=O)(=O)c2ccccc2)c(OC)c1	3.6 µg/mL
CNS(=O)(=O)c1cc(N)ccc1C	26.2 µg/mL
CCOC(=O)C1CCN(C(=O)c2cc3cc(Cl)ccc3[nH]2)CC1	19 µg/mL
O=C(c1ccc(-c2cc(Cl)ccc2Cl)o1)N1CCOCC1	11.3 µg/mL
Fc1ccc(NC(=S)NCc2cccnc2)cc1	> 39.2 µg/mL
CC(O)CNc1ccc([N+](=O)[O-])cc1S(=O)(=O)N1CCOCC1 (centres undefined)	> 51.8 µg/mL
COc1ccc(C(=O)N2CCC(O)(c3ccc(Cl)cc3)CC2)cc1OC	> 56.4 µg/mL
CCN(CC)S(=O)(=O)c1ccc(NCc2ccccn2)nc1	> 48.1 µg/mL
COc1ccc(NC(=O)CSc2nc(C)cs2)c([N+](=O)[O-])c1	45.1 µg/mL

Query block: So what does the record say about solubility kinetic for `CCCCN(C(=O)c1cccc(-c2ccc(OC(C)=O)cc2)c1)c1c(N)n(CCC)c(=O)[nH]c1=O` ?
Result block: 8.5 µg/mL

Query block: What would you report for `CN(C(=O)Oc1ccc(F)cc1)c1ccccc1` ?
Result block: 24 µg/mL

Query block: What would you report for `CC(=O)N1CCN(Cc2ccc(Cl)nc2)CC1` ?
Result block: > 38.1 µg/mL

Query block: What would you report for `Cc1ccc(NS(=O)(=O)c2ccc3c(c2)oc(=O)n3C)cc1` ?
Result block: 1.6 µg/mL

Query block: What would you report for `CCOc1ccc(NS(=O)(=O)c2cc(C(=O)NCCN3CCOCC3)ccc2C)cc1` ?
Result block: 66.4 µg/mL

Query block: What would you report for `CC(=O)Nc1ccc(C(=O)OCCc2ccccc2)cc1` ?
Result block: 38.8 µg/mL
